# system: human angiotensin converting enzyme 2 (ACE2), recombinant (human, UniProt Q9BYF1 18-740)
# Sequence (Q9BYF1 18-740): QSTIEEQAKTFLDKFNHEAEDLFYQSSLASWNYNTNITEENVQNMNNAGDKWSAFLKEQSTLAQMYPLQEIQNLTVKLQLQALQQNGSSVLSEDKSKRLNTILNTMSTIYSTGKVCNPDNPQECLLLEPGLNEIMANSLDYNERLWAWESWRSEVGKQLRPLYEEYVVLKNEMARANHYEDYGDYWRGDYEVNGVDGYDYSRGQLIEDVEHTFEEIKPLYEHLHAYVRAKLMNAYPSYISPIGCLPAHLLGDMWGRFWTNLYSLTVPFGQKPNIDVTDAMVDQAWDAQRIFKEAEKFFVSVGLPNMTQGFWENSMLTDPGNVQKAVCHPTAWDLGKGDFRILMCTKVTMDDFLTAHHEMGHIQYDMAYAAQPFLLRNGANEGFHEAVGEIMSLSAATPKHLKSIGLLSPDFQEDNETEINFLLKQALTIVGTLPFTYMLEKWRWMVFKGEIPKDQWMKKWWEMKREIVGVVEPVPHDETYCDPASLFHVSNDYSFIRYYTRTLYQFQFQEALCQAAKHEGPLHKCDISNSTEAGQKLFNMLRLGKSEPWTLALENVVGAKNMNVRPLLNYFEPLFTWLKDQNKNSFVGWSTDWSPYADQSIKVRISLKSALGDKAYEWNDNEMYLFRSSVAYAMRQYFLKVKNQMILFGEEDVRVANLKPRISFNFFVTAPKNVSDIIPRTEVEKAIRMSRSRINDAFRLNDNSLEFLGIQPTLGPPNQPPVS
# experimental details: BLI
pKd: −log10 of the molar value. Where no end group is shown, it is not given here.
measured parameter: pKd

binder | reported value
LKVKYMWDYLFGK-NH2 (also: biotinylated, position not given here) [ACE2-binding peptide ABP C4] | 7.24
LFRGYFAAMNNLK-NH2 (also: biotinylated, position not given here) [ACE2-binding peptide ABP C1] | 7.18
LHFAKWNHVWSWK-NH2 (also: biotinylated, position not given here) [ACE2-binding peptide ABP C2] | 7.24

Reference source for all entries: paper PMC9814530
